molecular target: FGFR1 extracellular domain (human, UniProt P11362 22-376); test: SPR; 1:1 model; ka 2.20E10 1/Ms, kd 54.9 1/s; SPR: Biacore T200, CM5 amine coupling, HBS running buffer (pH, salt, temperature not stated); flow cytometry: PBS, 1% BSA, 0.1% sodium azide, room temperature; details: protein: commercial; stem-loop (Mfold)
Sequence (P11362 22-376): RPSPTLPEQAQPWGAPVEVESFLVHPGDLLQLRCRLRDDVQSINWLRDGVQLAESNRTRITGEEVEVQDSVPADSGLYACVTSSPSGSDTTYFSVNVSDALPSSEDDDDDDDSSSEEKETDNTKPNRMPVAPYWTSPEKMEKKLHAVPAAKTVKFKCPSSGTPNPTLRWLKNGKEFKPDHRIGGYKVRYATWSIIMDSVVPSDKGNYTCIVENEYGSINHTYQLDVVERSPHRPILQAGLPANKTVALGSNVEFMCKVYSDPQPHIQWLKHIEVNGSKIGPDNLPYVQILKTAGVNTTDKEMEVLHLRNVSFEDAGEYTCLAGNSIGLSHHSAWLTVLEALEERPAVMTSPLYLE
measured-attribute: Kd (nM)
Please state the figure in nM; there is no need to write the unit.

Exercise: Reported Kd for GCCGCGTCTTTATGGCTGGGGATGGTGTGGGTTGCGGC (structured_DNA) [FGFR-binder] : what is it?
Key: 2.5

# credit: paper PMC10638775
